- Test system: Plasmodium berghei (Pb-Luc) exoerythrocytic-stage parasites
- REPORTED CONDITIONS: read-out: Exoerythrocytic-stage Pb-Luc IC50; Figure 4b, second assay (value in parentheses)
Record form. Attribute: pIC50. Fill in for each entry.
When answering, recall that pIC50 equals minus log10 of the concentration in mol/L, and write that number alone.

Please give the measured pIC50 for this compound: O=C(Nc1cccc(F)c1)N1CCCCN2[C@H](CO)[C@@H](c3ccc(C#Cc4cccnc4)cc3)[C@@H]2C1 6.64

Please give the measured pIC50 for this compound: CCCNC(=O)N1[C@H](CO)[C@H](c2ccc(C#Cc3cccc(F)c3)cc2)[C@@H]1C#N 7.40

Please give the measured pIC50 for this compound: CCCNC(=O)N1[C@H](C#N)[C@H](c2ccc(C#Cc3cccc(F)c3)cc2)[C@H]1CO 8.70

Please give the measured pIC50 for this compound: CS(=O)(=O)N1[C@H](C#N)[C@H](c2ccc(C#Cc3cccc(F)c3)cc2)[C@H]1CO 6.82

---

Record form. Attribute: HepG2 Tox% @ 50 uM rep2. Fill in for each entry.
- Test system: HepG2-A16-CD81EGFP cells
- REPORTED CONDITIONS: human, 50 uM
Express your answer in %, writing the number without its unit.

GET /values?readout=HepG2 Tox% @ 50 uM rep2&system=HepG2-A16-CD81EGFP cells&item= O=C(Nc1ccccc1O)c1ccc(Oc2cccc(C(=O)Nc3ccccc3O)c2)cc1 [MMV665888] 100

GET /values?readout=HepG2 Tox% @ 50 uM rep2&system=HepG2-A16-CD81EGFP cells&item= CCN(CC)c1cc(C)c2cc(NC(=O)c3cccc(OC)c3)ccc2n1 [MMV000498] 101

GET /values?readout=HepG2 Tox% @ 50 uM rep2&system=HepG2-A16-CD81EGFP cells&item= COc1nc(Nc2ccc(C(C)C)cc2)nc(OC)n1 [MMV007808] 95

GET /values?readout=HepG2 Tox% @ 50 uM rep2&system=HepG2-A16-CD81EGFP cells&item= COc1cccc(C2(C)Nc3ccccc3-c3nc4ccccc4n32)c1 (stereo not drawn) [MMV396719] 100

GET /values?readout=HepG2 Tox% @ 50 uM rep2&system=HepG2-A16-CD81EGFP cells&item= CN1CCN(c2c3c(c(C#N)c4nc5ccccc5n24)CCC3)CC1 [MMV008127] -9

GET /values?readout=HepG2 Tox% @ 50 uM rep2&system=HepG2-A16-CD81EGFP cells&item= COc1cc2cc(C(=O)Nc3ccccc3)c(N)nc2cc1OC [MMV006767] 10

GET /values?readout=HepG2 Tox% @ 50 uM rep2&system=HepG2-A16-CD81EGFP cells&item= O=C(Nc1ccc(CN2CCOCC2)cc1)c1ccc(-c2cc(Cl)ccc2Cl)o1 [MMV020651] 96

GET /values?readout=HepG2 Tox% @ 50 uM rep2&system=HepG2-A16-CD81EGFP cells&item= CCCN(CCC)CCCNC(=O)c1cc2c(-c3ccc(OC)c(OC)c3)nn(C)c2s1 [MMV000561] 100

GET /values?readout=HepG2 Tox% @ 50 uM rep2&system=HepG2-A16-CD81EGFP cells&item= COCCNCC(O)Cn1c2ccc(Cl)cc2c2cc(Cl)ccc21 (stereo not drawn) [MMV019017] 99

---

- System: Plasmodium berghei (Pb-Luc) exoerythrocytic-stage parasites
- REPORTED CONDITIONS: concentration 3.33333, second replicate series; fraction of control
Record form. Attribute: normalized signal at 3.33333 (second series). Fill in for each entry.
// response body must contain only the number

Please give the measured normalized signal at 3.33333 (second series) for this compound: O=C(Cc1ccccn1)N1CC2(C1)[C@H](c1ccccc1)[C@H](CO)N2C(=O)c1ccncc1 [BRD-K71274172-001-01-0] 0.9744

Please give the measured normalized signal at 3.33333 (second series) for this compound: O=C(C[C@@H]1CC[C@@H]2[C@H](COC[C@@H](O)CN2C(=O)c2ccncc2)O1)Nc1ccc(-c2ccccc2)cc1 [BRD-K17686828-001-01-0] 0.8412

Please give the measured normalized signal at 3.33333 (second series) for this compound: C/C=C/c1ccc([C@H]2[C@@H](CO)N(CC3CCCCC3)[C@@H]2CNC(C)C)cc1 [BRD-K19633528-001-01-3] 0.9519

Please give the measured normalized signal at 3.33333 (second series) for this compound: COc1ccc(NC(=O)N(C)C[C@H]2Oc3ccc(NC(=O)Nc4cccc5ccccc45)cc3CC(=O)N([C@@H](C)CO)C[C@@H]2C)cc1 [BRD-K15104969-001-01-5] 1.005

Please give the measured normalized signal at 3.33333 (second series) for this compound: C[C@@H]1CN([C@H](C)CO)C(=O)c2ccccc2-c2ccccc2CO[C@H]1CN(C)C(=O)[C@H](Cc1ccccc1)N(C)C [BRD-K75961033-001-01-7] 0.5506

Please give the measured normalized signal at 3.33333 (second series) for this compound: C[C@H]1CN([C@@H](C)CO)C(=O)c2cccc(NC(=O)c3ccc(-c4nccs4)cc3)c2O[C@@H]1CN(C)C(=O)Nc1ccc(C(F)(F)F)cc1 [BRD-K03390828-001-01-5] 0.8715

Please give the measured normalized signal at 3.33333 (second series) for this compound: COc1ccc(NC(=O)N(C)C[C@H]2Oc3c(NC(=O)CCCCCC(=O)Nc4ccccc4N)cccc3C(=O)N([C@H](C)CO)C[C@H]2C)cc1 [BRD-K75018854-001-01-2] 1.022

Please give the measured normalized signal at 3.33333 (second series) for this compound: N#C[C@@H]1[C@H](c2ccccc2C2=CCCC2)[C@H](CO)N1C(=O)C1CCOCC1 [BRD-K53180201-001-01-6] 0.9769

Please give the measured normalized signal at 3.33333 (second series) for this compound: C[C@@H]1CN([C@H](C)CO)C(=O)c2cccc(NC(=O)c3ccc(-c4nccs4)cc3)c2O[C@H]1CN(C)C(=O)Nc1ccc(C(F)(F)F)cc1 [BRD-K64517877-001-01-9] 0.7269

---

- Tested on: HepG2-A16-CD81EGFP cells
- PROTOCOL: cells
- REPORTED CONDITIONS: Homo sapiens, HepG2, read-out: HepG2 Tox% @ 50 uM rep2
QUANTITY: cytotoxicity at 50 µM (%)
Express your answer in %, writing the number without its unit.

Please give the measured cytotoxicity at 50 µM for this compound: O=[N+]([O-])c1ccc(C=NNc2nc3ccccc3[nH]2)cc1 [MMV666607] 20

Please give the measured cytotoxicity at 50 µM for this compound: CCOc1cc2c(cc1OCC)C(c1cc(OC)c(O)cc1Cl)NCC2 (stereo not drawn) [MMV008956] -15

Please give the measured cytotoxicity at 50 µM for this compound: Cc1ccc(Cn2c(N3CCC(C(=O)NCc4cccs4)CC3)nc3ccccc32)cc1 [MMV007564] 99

Please give the measured cytotoxicity at 50 µM for this compound: COc1ccc(-c2c(C)nn3c(N)c(C#N)cnc23)cc1OC [MMV396797] 77

Please give the measured cytotoxicity at 50 µM for this compound: CC(C)=CCN1CCC(C(=O)Nc2ccc(-c3nc4ccccc4[nH]3)cc2)CC1 [MMV665946] 99

Please give the measured cytotoxicity at 50 µM for this compound: CC(=O)NCCc1nc2ccccc2n1Cc1ccc(C(C)C)cc1 [MMV007617] 80

Please give the measured cytotoxicity at 50 µM for this compound: O=C(c1ccccc1F)N(Cc1ccc(Cl)cc1)c1ccccn1 [MMV665899] 28

Please give the measured cytotoxicity at 50 µM for this compound: COc1cccc(C=Cc2nc(=O)c3ccccc3o2)c1OC [MMV666693] 7

Please give the measured cytotoxicity at 50 µM for this compound: CC(NCc1ccccc1)c1cc(Cl)ccc1O (stereo not drawn) [MMV665789] 89

Please give the measured cytotoxicity at 50 µM for this compound: Cc1ccc(-c2cc(C(=O)Nc3ccc(S(=O)(=O)N4CCCCC4)cc3)[nH]n2)c(O)c1 [MMV665906] -5

Please give the measured cytotoxicity at 50 µM for this compound: O=C(Nc1nc(-c2ccccn2)cs1)c1ccccc1Br [MMV665909] 86

Please give the measured cytotoxicity at 50 µM for this compound: Cc1cccc(-n2ncc3c(=O)[nH]c(-n4nc(C)cc4NC(=O)c4cc5ccccc5o4)nc32)c1 [MMV403679] 47

Please give the measured cytotoxicity at 50 µM for this compound: O=C(CSc1nccn2nc(-c3ccccc3)cc12)Nc1cc(C(F)(F)F)ccc1Cl [MMV396678] -3

Please give the measured cytotoxicity at 50 µM for this compound: O=C(NCC(c1ccsc1)N1CCCCCC1)c1ccc(C(F)(F)F)cc1 (stereo not drawn) [MMV396672] 99

Please give the measured cytotoxicity at 50 µM for this compound: Cc1cc(NCCN2CCCCC2)c2ccc3ccccc3c2n1 [MMV006203] 95

Please give the measured cytotoxicity at 50 µM for this compound: CC(C)(C)c1ccc(O)c(CNC2CCCCC2)c1 [MMV665785] 99

Please give the measured cytotoxicity at 50 µM for this compound: COc1ccc(NC(=O)C2c3ccccc3C(=O)N(CC(C)C)C2c2cccs2)cc1Cl (stereo not drawn) [MMV000642] 30

Please give the measured cytotoxicity at 50 µM for this compound: Cc1ccc(-c2cc3c(nn2)-c2ccccc2C3=O)cc1 [MMV666021] 9

Please give the measured cytotoxicity at 50 µM for this compound: Cc1cc(C)c2nc(N3CCC(C(=O)NCCCN4CCC(N5CCCCC5)CC4)CC3)sc2c1 [MMV019780] 98

Please give the measured cytotoxicity at 50 µM for this compound: Clc1ccc2[nH]c3c(NCCCN4CCOCC4)ncnc3c2c1 [MMV006587] 98

Please give the measured cytotoxicity at 50 µM for this compound: CCCCCC(=O)N1c2ccccc2N=C2CC(c3ccc(OC)c(OC)c3)CC(O)=C2C1c1ccc(C(F)(F)F)cc1 (stereo not drawn) [MMV085583] 28

Please give the measured cytotoxicity at 50 µM for this compound: CCOC(=O)c1cn(CC)c2cc(N(C)CCc3ccc(OC)c(OC)c3)c(F)cc2c1=O [MMV665977] 3

Please give the measured cytotoxicity at 50 µM for this compound: CN(C)c1ccc(C(O)(c2ccc(N(C)C)cc2)c2ccc(N(C)C)cc2)cc1 [MMV665941] 97

Please give the measured cytotoxicity at 50 µM for this compound: COc1cccc(NC(=O)[C@H](C(C)C)n2c(=O)[nH]c3ccccc3c2=O)c1 [MMV665878] 4.53

Please give the measured cytotoxicity at 50 µM for this compound: CCN(CC)CCNc1ncnc2c1[nH]c1ccc(Br)cc12 [MMV006545] 101

Please give the measured cytotoxicity at 50 µM for this compound: CCN(CC)c1ccc(NC(=O)c2cccs2)cc1 [MMV009060] 16

Please give the measured cytotoxicity at 50 µM for this compound: COc1cc(OC)c(N(C)C(=O)c2cc3c(s2)-c2ccccc2S(=O)(=O)C3)cc1Cl [MMV006427] 52

Please give the measured cytotoxicity at 50 µM for this compound: CCOc1c(Cl)cc(CNCC(O)c2ccccc2)cc1OC (stereo not drawn) [MMV396632] 76

Please give the measured cytotoxicity at 50 µM for this compound: CCCCc1c(C)nc2c(OC)cccc2c1O [MMV006820] -12

Please give the measured cytotoxicity at 50 µM for this compound: C=CCc1c(C)nc2ccccc2c1O [MMV006913] -5

Please give the measured cytotoxicity at 50 µM for this compound: CCOc1ccc(CCNC(=O)c2cccs2)cc1OCC [MMV007978] 10

Please give the measured cytotoxicity at 50 µM for this compound: CCc1ccc(Nc2cc(C)nc3nc(C)nn23)cc1 [MMV007374] 15

Please give the measured cytotoxicity at 50 µM for this compound: CCCCOc1ccc(C(=O)Nc2cc(C)on2)cc1 [MMV007906] -10

Please give the measured cytotoxicity at 50 µM for this compound: COc1ccc(NC(=O)C2c3ccccc3C(=O)N(CC(C)C)C2c2cccs2)cc1 (stereo not drawn) [MMV000662] 50

Please give the measured cytotoxicity at 50 µM for this compound: CC(C)(C)C(=O)Nc1ccc(C(=O)Nc2cccc(-c3nc4ccccc4[nH]3)c2)cc1 [MMV665879] 100

Please give the measured cytotoxicity at 50 µM for this compound: O=C(O)C1Cc2c([nH]c3ccccc23)C(c2ccc(Cl)cc2Cl)N1 (stereo not drawn) [MMV008138] 53

Please give the measured cytotoxicity at 50 µM for this compound: CCOC(=O)c1cn(CC)c2cc(N3CCCCC3)c(F)cc2c1=O [MMV665827] -7

Please give the measured cytotoxicity at 50 µM for this compound: O=C(Nc1ccc(F)c(Cl)c1)Nc1ccc(Cl)c(Cl)c1 [MMV665953] 98

Please give the measured cytotoxicity at 50 µM for this compound: CCN(CC)CCNc1ncnc2c1[nH]c1ccc(Cl)cc12 [MMV396703] 98
